systemTested: T1, PCSK9 D374Y mutant protein inserted with biotin receiving peptide BP15 and His-tag: PCSK9-D374Y-BP15-His6 (human, UniProt Q8NBP7 153-692; A8T644 31-152, biotin on the BP15 biotin receiving peptide)
T1 construct: also called PCSK9-Y; mutant PCSK9
testProtocol: ELISA, biotin PCSK9-Y on streptavidin plate
For each of the binders below, state its EC50.
One number for each entry, in ng/mL.

[
  {
    "binder": "h011-3120 (antibody, V domains shown) VH: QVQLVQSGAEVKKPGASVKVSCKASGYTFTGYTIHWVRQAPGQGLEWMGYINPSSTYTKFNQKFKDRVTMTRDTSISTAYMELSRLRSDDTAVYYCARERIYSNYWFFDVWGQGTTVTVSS VL: DIVMTQSPSSLSASVGDRVTITCKASQNVYTAVAWYQQKPGKSPKLLIYSASNRYTGVPSRFSGSGSGTDFTLTISSLQPEDFATYFCQQFSWFPYTFGGGTKVEIK",
    "resultType": "EC50",
    "unitTag": "ng/mL",
    "observedMeasurement": 7.11
  }
]

For each of the binders below, state EC50.
1. h011-3194 (antibody, V domains shown) VH: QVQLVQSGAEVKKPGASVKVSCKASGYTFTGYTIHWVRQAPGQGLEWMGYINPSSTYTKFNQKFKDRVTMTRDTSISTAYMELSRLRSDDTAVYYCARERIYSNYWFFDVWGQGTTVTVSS VL: DIVMTQSPSSLSASVGDRVTITCKASQNVYTAVAWYQQKPGKSPKLLIYSASNRYTGVPSRFSGSGSGTDFTLTISSLQPEDFATYFCQQLSSYPYTFGGGTKVEIK
2. h011-3121 (antibody, V domains shown) VH: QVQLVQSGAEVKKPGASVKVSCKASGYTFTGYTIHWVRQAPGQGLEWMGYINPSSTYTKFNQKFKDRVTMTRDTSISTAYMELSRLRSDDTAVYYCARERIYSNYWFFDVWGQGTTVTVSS VL: DIVMTQSPSSLSASVGDRVTITCKASQNVYTAVAWYQQKPGKSPKLLIYSASNRYTGVPSRFSGSGSGTDFTLTISSLQPEDFATYFCQQLSSQPETFGGGTKVEIK

a:
16.9
6.95
